Values from patent US11560372B2

# TARGET_OR_TEST_SYSTEM: MDR1 (Homo sapiens)
# Construct: expressed in transfected cells
# Sequence (P08183 whole entry): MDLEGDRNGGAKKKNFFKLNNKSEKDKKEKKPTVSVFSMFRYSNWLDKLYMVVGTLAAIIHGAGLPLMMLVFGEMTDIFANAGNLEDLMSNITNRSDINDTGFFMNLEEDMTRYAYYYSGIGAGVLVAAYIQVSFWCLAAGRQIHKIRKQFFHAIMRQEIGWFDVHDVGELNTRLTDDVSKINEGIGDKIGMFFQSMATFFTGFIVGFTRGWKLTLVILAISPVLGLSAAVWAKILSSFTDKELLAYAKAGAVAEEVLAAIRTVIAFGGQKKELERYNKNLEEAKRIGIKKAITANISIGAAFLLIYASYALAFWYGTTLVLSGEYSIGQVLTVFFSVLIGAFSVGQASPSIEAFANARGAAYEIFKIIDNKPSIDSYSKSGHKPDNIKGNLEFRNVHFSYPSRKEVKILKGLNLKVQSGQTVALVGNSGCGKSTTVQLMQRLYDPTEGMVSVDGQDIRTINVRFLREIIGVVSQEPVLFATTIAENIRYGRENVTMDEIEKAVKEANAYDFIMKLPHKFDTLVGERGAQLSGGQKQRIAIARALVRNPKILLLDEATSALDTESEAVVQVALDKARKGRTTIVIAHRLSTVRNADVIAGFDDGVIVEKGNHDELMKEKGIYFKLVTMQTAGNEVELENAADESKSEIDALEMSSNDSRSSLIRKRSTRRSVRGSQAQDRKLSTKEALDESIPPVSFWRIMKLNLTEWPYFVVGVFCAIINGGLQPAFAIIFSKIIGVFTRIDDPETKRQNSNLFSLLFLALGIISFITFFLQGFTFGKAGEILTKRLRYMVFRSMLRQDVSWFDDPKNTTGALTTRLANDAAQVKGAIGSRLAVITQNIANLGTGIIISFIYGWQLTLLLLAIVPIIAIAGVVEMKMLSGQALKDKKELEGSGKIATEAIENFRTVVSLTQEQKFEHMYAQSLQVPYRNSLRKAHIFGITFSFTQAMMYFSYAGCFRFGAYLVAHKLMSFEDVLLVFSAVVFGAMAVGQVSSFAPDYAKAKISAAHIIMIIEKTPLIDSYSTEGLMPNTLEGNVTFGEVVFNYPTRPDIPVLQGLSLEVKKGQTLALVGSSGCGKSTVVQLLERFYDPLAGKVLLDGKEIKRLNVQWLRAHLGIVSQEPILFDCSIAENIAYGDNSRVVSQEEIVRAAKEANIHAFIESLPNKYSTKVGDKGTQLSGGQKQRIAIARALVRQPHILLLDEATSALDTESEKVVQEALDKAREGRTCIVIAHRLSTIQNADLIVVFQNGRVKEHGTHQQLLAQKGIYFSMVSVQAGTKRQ
# ASSAY_DETAILS: MDR1 membrane permeability test
# Format: in vitro ADME
# APPLIED_CONDITIONS: pH 7.4, efflux ratio (ER), Papp B to A / A to B, human MDR1-expressing LLC-PK1 cells, read-out: MDR1 substrate screening 1 μM (MDRSUB1)/Ratio (NUMBER)
Outcome label depends on efflux ratio at 1 hr, 1 μM relative to 4: at/above gives criterion met, below gives criterion not met.

[
  {
    "COMPOUND": "Cc1c(Cc2ccc(C(=O)NC3CC3)cc2)cc2c(=O)n([C@H]3CCOC[C@@H]3O)cnc2c1C [Example 44]",
    "CLASSIFICATION": "criterion met"
  },
  {
    "COMPOUND": "Cc1nn(C)cc1-c1ccc(Cc2cc3c(=O)n([C@H]4CCOC[C@@H]4O)cnc3c(F)c2C)cn1 [Example 23]",
    "CLASSIFICATION": "criterion met"
  },
  {
    "COMPOUND": "Cc1c(Cc2ccc(-c3cn(C)nn3)cc2)cc2c(=O)n([C@H]3CCOC[C@@H]3O)nnc2c1Cl [Example 20]",
    "CLASSIFICATION": "criterion not met"
  },
  {
    "COMPOUND": "Cc1c(Cc2ccc(C(=O)NCCF)cc2)cc2c(=O)n([C@H]3CCOC[C@@H]3O)cnc2c1C [Example 37]",
    "CLASSIFICATION": "criterion met"
  },
  {
    "COMPOUND": "CNC(=O)c1ccc(Cc2cc3c(=O)n([C@H]4CCOC[C@@H]4O)cnc3c(Cl)c2C)cc1F [Example 10]",
    "CLASSIFICATION": "criterion met"
  },
  {
    "COMPOUND": "Cc1c(Cc2ccc(-c3cnn(C)c3)cc2)cc2c(=O)n([C@H]3CCOC[C@@H]3O)cnc2c1C [Example 9]",
    "CLASSIFICATION": "criterion not met"
  },
  {
    "COMPOUND": "Cc1c(Cc2ccc(-c3cnn(CC(=O)N(C)C)c3)nc2)cc2c(=O)n([C@H]3CCOC[C@@H]3O)cnc2c1C [Example 82]",
    "CLASSIFICATION": "criterion met"
  },
  {
    "COMPOUND": "Cc1c(Cc2ccc(-c3ccn(C)n3)nc2)cc2c(=O)n([C@H]3CCOC[C@@H]3O)nnc2c1C [Example 59]",
    "CLASSIFICATION": "criterion not met"
  },
  {
    "COMPOUND": "Cc1c(Cc2ccc(C(=O)NCCN3CCOCC3)cc2)cc2c(=O)n([C@H]3CCOC[C@@H]3O)cnc2c1C [Example 47]",
    "CLASSIFICATION": "criterion met"
  },
  {
    "COMPOUND": "Cc1c(Cc2ccc(C(=O)NCC3CCCO3)cc2)cc2c(=O)n([C@H]3CCOC[C@@H]3O)cnc2c1C (stereo partly drawn) [Example 45]",
    "CLASSIFICATION": "criterion met"
  },
  {
    "COMPOUND": "Cc1c(Cc2ccc(-c3cnn(C)c3)cc2)cc2c(=O)n([C@H]3CCOC[C@@H]3O)cnc2c1F [Example 24]",
    "CLASSIFICATION": "criterion not met"
  },
  {
    "COMPOUND": "COCCNC(=O)c1ccc(Cc2cc3c(=O)n([C@H]4CCOC[C@@H]4O)cnc3c(C)c2C)cc1F [Example 66]",
    "CLASSIFICATION": "criterion met"
  },
  {
    "COMPOUND": "Cc1ccc(Cc2cc3c(=O)n([C@H]4CCOC[C@@H]4O)cnc3c(C)c2C)cn1 [Example 7]",
    "CLASSIFICATION": "criterion not met"
  },
  {
    "COMPOUND": "Cc1c(Cc2ccc(-c3ccn(C)n3)nc2)cc2c(=O)n([C@H]3CCOC[C@@H]3O)cnc2c1C [Example 1]",
    "CLASSIFICATION": "criterion met"
  },
  {
    "COMPOUND": "Cc1cc(-c2ccc(Cc3cc4c(=O)n([C@H]5CCOC[C@@H]5O)cnc4c(C)c3C)cc2)cnn1 [Example 4]",
    "CLASSIFICATION": "criterion met"
  }
]
